Target: SARS-COV-2 RBD-MMH (SARS-COV-2 RBD extracellular domain with C-terminal myc-myc-hexahistidine tag) (SARS-CoV-2)
Reported t½ at pH 7.4 values for a set of binders
Write the value in min as a bare number.

Prompt: I am curious: what t½ at pH 7.4 value has been reported for mAb15170 (antibody, V domains shown) VH: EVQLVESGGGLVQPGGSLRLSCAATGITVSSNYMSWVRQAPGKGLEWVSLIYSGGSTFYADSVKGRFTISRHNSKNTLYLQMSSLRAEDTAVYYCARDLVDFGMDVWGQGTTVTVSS VL: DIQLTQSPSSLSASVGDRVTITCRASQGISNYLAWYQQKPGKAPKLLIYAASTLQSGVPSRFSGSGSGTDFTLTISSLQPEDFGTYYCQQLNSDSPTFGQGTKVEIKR ?
Completion: 108

Prompt: I am curious: what t½ at pH 7.4 value has been reported for mAb14283 (antibody, V domains shown) VH: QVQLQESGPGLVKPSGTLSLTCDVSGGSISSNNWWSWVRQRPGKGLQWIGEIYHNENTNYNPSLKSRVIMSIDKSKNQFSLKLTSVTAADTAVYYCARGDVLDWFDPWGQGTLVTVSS VL: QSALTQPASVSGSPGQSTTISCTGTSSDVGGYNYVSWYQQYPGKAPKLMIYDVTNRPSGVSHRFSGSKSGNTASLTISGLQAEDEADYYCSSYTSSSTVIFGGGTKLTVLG ?
Completion: 6.9

More entries:
Prompt: I am curious: what t½ at pH 7.4 value has been reported for mAb14284 (antibody, V domains shown) VH: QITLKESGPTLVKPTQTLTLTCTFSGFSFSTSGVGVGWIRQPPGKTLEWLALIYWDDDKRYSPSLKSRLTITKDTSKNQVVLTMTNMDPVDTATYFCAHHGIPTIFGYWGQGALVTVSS VL: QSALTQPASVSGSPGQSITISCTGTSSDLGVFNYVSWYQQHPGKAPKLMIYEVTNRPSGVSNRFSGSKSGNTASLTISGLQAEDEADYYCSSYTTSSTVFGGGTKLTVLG ?
Completion: 18.5
